target: NLRP3 inflammasome (Homo sapiens (Human), UniProt Q96P20); assay: Evaluation of NLRP3 inflammasome inhibitory activity (inhibition of IL-1β production in LPS/Nigericin-stimulated THP1-Null cells); assay type: cell-based; details: IL-1β production in THP1-Null cells; test compound 2.4 μM
Sequence (Q96P20 whole entry): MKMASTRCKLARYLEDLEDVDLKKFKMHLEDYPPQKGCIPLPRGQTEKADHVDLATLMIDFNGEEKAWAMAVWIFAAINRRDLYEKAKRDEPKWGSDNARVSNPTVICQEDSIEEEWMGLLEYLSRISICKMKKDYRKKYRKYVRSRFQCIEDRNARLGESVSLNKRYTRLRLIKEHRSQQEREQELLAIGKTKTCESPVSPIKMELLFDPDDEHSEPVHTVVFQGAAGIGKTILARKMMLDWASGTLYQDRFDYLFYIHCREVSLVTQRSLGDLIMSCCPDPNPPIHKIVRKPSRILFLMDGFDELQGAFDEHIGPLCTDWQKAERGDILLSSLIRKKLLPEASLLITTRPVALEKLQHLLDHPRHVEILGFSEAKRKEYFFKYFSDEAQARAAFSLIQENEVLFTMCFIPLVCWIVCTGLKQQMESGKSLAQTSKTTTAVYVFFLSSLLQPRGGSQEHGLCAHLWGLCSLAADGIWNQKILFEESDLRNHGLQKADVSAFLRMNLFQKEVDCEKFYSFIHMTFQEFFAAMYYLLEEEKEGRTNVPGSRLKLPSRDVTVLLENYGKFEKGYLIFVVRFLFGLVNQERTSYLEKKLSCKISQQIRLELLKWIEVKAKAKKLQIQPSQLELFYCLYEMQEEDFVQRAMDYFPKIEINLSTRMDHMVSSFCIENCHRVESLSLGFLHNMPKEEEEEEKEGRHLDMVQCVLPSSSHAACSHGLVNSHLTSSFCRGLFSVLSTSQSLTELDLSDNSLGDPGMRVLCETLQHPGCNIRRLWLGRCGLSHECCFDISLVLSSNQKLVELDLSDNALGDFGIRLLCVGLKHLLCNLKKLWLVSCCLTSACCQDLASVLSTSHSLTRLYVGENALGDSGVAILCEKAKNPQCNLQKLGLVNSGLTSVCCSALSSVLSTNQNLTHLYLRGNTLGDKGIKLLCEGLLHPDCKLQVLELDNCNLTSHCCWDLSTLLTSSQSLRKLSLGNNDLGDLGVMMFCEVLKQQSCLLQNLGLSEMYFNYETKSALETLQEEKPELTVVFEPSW

chemical_string | units_text | inhibition at 2.4 µM
O=c1[nH]c(N2CCOCC2)nc2nn(-c3c(Cl)cc(C(F)(F)F)cc3N3CCOCC3)cc12 | % | 40
Cc1cc(Br)cc(C)c1-n1cc2c(OC(F)F)nc(N3CCOCC3)nc2n1 | % | 33
Cc1nn(C)c(C)c1-n1cc2c(=O)[nH]c(N3CCCC3)nc2n1 | % | 45
COc1ccc(CNc2cc(C(F)(F)F)cc(Cl)c2-n2cc3c(=O)[nH]c(N4CCOCC4)nc3n2)c(OC)c1 | % | 25
